# tested-system: UniProt:P10969
# Sequence (P10969 1-171 limits assumed): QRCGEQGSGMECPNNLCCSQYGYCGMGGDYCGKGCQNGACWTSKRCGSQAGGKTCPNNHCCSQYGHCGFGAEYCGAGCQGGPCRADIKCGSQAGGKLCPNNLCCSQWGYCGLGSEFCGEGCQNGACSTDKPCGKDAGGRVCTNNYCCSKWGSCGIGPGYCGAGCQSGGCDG
# assay: enzyme-linked lectin assay (ELLA): inhibition of binding of HRP-labeled WGA to covalently immobilized GlcNAc
# Design: species or system Triticum vulgaris
# condition-notes: inhibition of binding of HRP-labeled WGA to covalently immobilized GlcNAc; read-out: IC50

- test-smiles: "CC(=O)N[C@H]1[C@H](OCc2cn(Cc3ccccc3)nn2)O[C@H](CO)[C@@H](O[C@@H]2O[C@H](CO)[C@@H](O)[C@H](O)[C@H]2NC(C)=O)[C@@H]1O"
  IC50, nM: 290000
- test-smiles: "CC(=O)N[C@H]1[C@H](OCc2cn(CCN(CCn3cc(CO[C@@H]4O[C@H](CO)[C@@H](O[C@@H]5O[C@H](CO)[C@@H](O)[C@H](O)[C@H]5NC(C)=O)[C@H](O)[C@H]4NC(C)=O)nn3)CCn3cc(CO[C@@H]4O[C@H](CO)[C@@H](O[C@@H]5O[C@H](CO)[C@@H](O)[C@H](O)[C@H]5NC(C)=O)[C@H](O)[C@H]4NC(C)=O)nn3)nn2)O[C@H](CO)[C@@H](O[C@@H]2O[C@H](CO)[C@@H](O)[C@H](O)[C@H]2NC(C)=O)[C@@H]1O"
  IC50, nM: 220
- test-smiles: "CC(=O)N[C@H]1[C@H](OCc2cn(CCCOCCOCCOCCCn3cc(CO[C@@H]4O[C@H](CO)[C@@H](O[C@@H]5O[C@H](CO)[C@@H](O)[C@H](O)[C@H]5NC(C)=O)[C@H](O)[C@H]4NC(C)=O)nn3)nn2)O[C@H](CO)[C@@H](O[C@@H]2O[C@H](CO)[C@@H](O)[C@H](O)[C@H]2NC(C)=O)[C@@H]1O"
  IC50, nM: 720
- test-smiles: "CC(=O)N[C@H]1[C@H](OCc2cn(CCCOCCCCOCCCn3cc(CO[C@@H]4O[C@H](CO)[C@@H](O[C@@H]5O[C@H](CO)[C@@H](O)[C@H](O)[C@H]5NC(C)=O)[C@H](O)[C@H]4NC(C)=O)nn3)nn2)O[C@H](CO)[C@@H](O[C@@H]2O[C@H](CO)[C@@H](O)[C@H](O)[C@H]2NC(C)=O)[C@@H]1O"
  IC50, nM: 600
